- protocolText: Thermodynamic solubility assay (THESA), also in FaSSIF and FeSSIF
- Type: physicochemical
- conditionNotes: fessif, thermodynamic from solid; fed simulated gastrointestinal fluid; read-out: solubility FeSSIF
measuredParameter: solubility at 15 h (µg/mL)
Answers are plain numbers, in µg/mL.

For the compound shown here, `Cn1c(C(C)(C)C)cc(=NC(=O)c2cc(C(F)(F)F)ccc2OCC(C)(C)O)n1CC1CCC1` , give the reported solubility at 15 h.
1370

###

Answer each item with its documented Ki.
- studySystem: hCB1R (Homo sapiens)
- Sequence (P21554 whole entry): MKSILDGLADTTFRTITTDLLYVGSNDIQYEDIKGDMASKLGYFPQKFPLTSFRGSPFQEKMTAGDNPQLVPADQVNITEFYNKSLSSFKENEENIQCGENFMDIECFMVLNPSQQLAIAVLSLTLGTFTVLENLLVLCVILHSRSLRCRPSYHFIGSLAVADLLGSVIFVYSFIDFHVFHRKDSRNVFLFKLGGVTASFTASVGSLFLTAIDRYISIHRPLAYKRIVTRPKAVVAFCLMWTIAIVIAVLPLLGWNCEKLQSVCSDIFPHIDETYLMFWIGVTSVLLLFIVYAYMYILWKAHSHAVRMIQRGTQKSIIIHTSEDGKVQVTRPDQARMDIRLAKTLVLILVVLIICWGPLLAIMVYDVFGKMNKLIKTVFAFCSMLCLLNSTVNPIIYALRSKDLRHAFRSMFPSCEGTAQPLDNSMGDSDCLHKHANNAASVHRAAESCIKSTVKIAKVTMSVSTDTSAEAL
- protocolText: Competition binding assay with [3H]-CP55940, HEK cell membranes

{"molecule": "N#Cc1cc(NC(=O)CCc2nc(-c3ccc(F)cc3Cl)no2)cnc1CC(F)(F)F [RNB-73]", "valueObserved": "> 10 µM"}

In the following, a different molecule is considered.
For the molecule shown here, COCCOCCc1cc(NC(=O)C(C)(C)S(=O)(=O)C2CCOCC2)on1 [RNB-70] , give the reported Ki.
> 10 µM

###

- protocolText: Single-dose pharmacokinetics in mice
- Assay type: in vivo
- conditionNotes: mouse, plasma, po, 26 mg kg^–1 p.o.
measuredParameter: Cmax (ng/mL)
Give bare numbers, in ng/mL.

For the compound shown here, `Cn1c(C(C)(C)C)cc(=NC(=O)c2cc(C(F)(F)F)ccc2OCC(C)(C)O)n1CC1CCC1` , give the reported Cmax.
4370

###

- protocolText: Brain penetration study with/without P-gp inhibitor tariquidar
- Assay type: in vivo, male C57/BL6 mice
- conditionNotes: male, C57/BL6, mouse, plasma, iv; RNB-61 1 mg kg^–1 i.v., no tariquidar
measuredParameter: Cmax (ng/mL)
Give bare numbers, in ng/mL.

For the compound shown here, Cn1c(C(C)(C)C)cc(=NC(=O)c2cc(C(F)(F)F)ccc2OCC(C)(C)O)n1CC1CCC1 [RNB-61] , give the reported Cmax.
972

###

- protocolText: Rodent single-dose PK studies (summary rats and mice)
- Format: in vivo
- conditionNotes: Wistar (rats); mouse strain not stated for this study, rat, mouse, plasma; in rats and mice; read-out: terminal plasma half-life
measuredParameter: half-life

For the molecule shown here, Cn1c(C(C)(C)C)cc(=NC(=O)c2cc(C(F)(F)F)ccc2OCC(C)(C)O)n1CC1CCC1 [RNB-61] , give the reported half-life.
4 to 8 h

###

- protocolText: Single-dose pharmacokinetics in male Wistar rats
- Assay type: in vivo
- conditionNotes: rat, plasma, po, 3 mg kg^–1 p.o.
measuredParameter: half-life
Write down the value, and be sure its unit follows.

For the compound shown here, Cn1c(C(C)(C)C)cc(=NC(=O)c2cc(C(F)(F)F)ccc2OCC(C)(C)O)n1CC1CCC1 [RNB-61] , give the reported half-life.
7.1 h

###

- protocolText: Single-dose pharmacokinetics in mice
- Type: in vivo
- conditionNotes: mouse, plasma, po, 26 mg kg^–1 p.o.
measuredParameter: half-life (h)
Give bare numbers, in h.

For the compound shown here, Cn1c(C(C)(C)C)cc(=NC(=O)c2cc(C(F)(F)F)ccc2OCC(C)(C)O)n1CC1CCC1 [RNB-61] , give the reported half-life.
4.3

###

- protocolText: Single-dose pharmacokinetics in male Wistar rats
- Format: in vivo
- conditionNotes: rat, plasma, po, 3 mg kg^–1 p.o., read-out: Cmax (molar)
measuredParameter: Cmax (nM)
Answers are plain numbers, in nM.

For the molecule shown here, `Cn1c(C(C)(C)C)cc(=NC(=O)c2cc(C(F)(F)F)ccc2OCC(C)(C)O)n1CC1CCC1` , give the reported Cmax.
926
